observation_type: melting point (°C)
Your answer should be a plain number; it is taken to be in °C.

So for COc1ccc(OC)c(NC(=O)CSC(=S)N2CCN(S(=O)(=O)c3ccc(C)cc3)CC2)c1 , the logged melting point turned out to be 190

So for Cc1ccc(S(=O)(=O)N2CCN(C(=S)SCC(=O)Nc3ccc(C)cc3C)CC2)cc1 , the logged melting point turned out to be 185

So for COc1ccc(NC(=O)CSC(=S)N2CCN(S(=O)(=O)c3ccc(C)cc3)CC2)cc1 , the logged melting point turned out to be 175

So for Cc1ccc(S(=O)(=O)N2CCN(C(=S)SCC(=O)Nc3ccccc3Cl)CC2)cc1 , the logged melting point turned out to be 180

###

Target: bacterial tyrosinase (Bacillus subtilis NA2)
Experiment: Tyrosinase inhibition, spectrophotometric L-Dopa assay
Type: biochemical
Settings: bacterial tyrosinase, L-Dopa substrate, PBS pH 6.8
observation_type: IC50 (µM)
Your answer should be a plain number; it is taken to be in µM.

bacterial tyrosinase (Bacillus subtilis NA2) data for Cc1ccc(S(=O)(=O)N2CCN(C(=S)SCC(=O)Nc3ccc(Cl)c(Cl)c3)CC2)cc1 ; its IC50: 19.2

bacterial tyrosinase (Bacillus subtilis NA2) data for Cc1ccc(S(=O)(=O)N2CCN(C(=S)SCC(=O)Nc3ccc(C)cc3C)CC2)cc1 ; its IC50: 7.24

bacterial tyrosinase (Bacillus subtilis NA2) data for Cc1ccc(S(=O)(=O)N2CCN(C(=S)SCC(=O)Nc3ccc(F)cc3)CC2)cc1 ; its IC50: 10.3

bacterial tyrosinase (Bacillus subtilis NA2) data for Cc1ccc(S(=O)(=O)N2CCN(C(=S)SCC(=O)Nc3ccccc3F)CC2)cc1 ; its IC50: 8.1

bacterial tyrosinase (Bacillus subtilis NA2) data for Cc1ccc(S(=O)(=O)N2CCN(C(=S)SCC(=O)Nc3ccc(C)c(C)c3)CC2)cc1 ; its IC50: 11.1

bacterial tyrosinase (Bacillus subtilis NA2) data for COc1ccc(OC)c(NC(=O)CSC(=S)N2CCN(S(=O)(=O)c3ccc(C)cc3)CC2)c1 ; its IC50: 13.2

bacterial tyrosinase (Bacillus subtilis NA2) data for Cc1ccc(S(=O)(=O)N2CCN(C(=S)SCC(=O)Nc3ccccc3Cl)CC2)cc1 ; its IC50: 8.01

bacterial tyrosinase (Bacillus subtilis NA2) data for O=c1cc(CO)occ1O [Kojic Acid, Kojic acid, reference compound] ; its IC50: 30.3

###

Target: bacterial tyrosinase (Bacillus subtilis NA2)
Assay: Tyrosinase inhibition, spectrophotometric L-Dopa assay
Assay type: biochemical
Settings: bacterial tyrosinase, L-Dopa substrate, PBS pH 6.8
Would you kindly list IC50 for each of these molecules?
Your answer should be a plain number; it is taken to be in µM.

So for Cc1ccc(S(=O)(=O)N2CCN(C(=S)SCC(=O)Nc3ccc(Cl)cc3)CC2)cc1 , the logged IC50 turned out to be 11.1

So for COc1ccc(NC(=O)CSC(=S)N2CCN(S(=O)(=O)c3ccc(C)cc3)CC2)cc1 , the logged IC50 turned out to be 6.88

So for Cc1ccc(S(=O)(=O)N2CCN(C(=S)SCC(=O)Nc3ccccc3)CC2)cc1 , the logged IC50 turned out to be 34.8

###

Would you kindly list hemolysis at 0.5 h, 1 mg/mL for each of these molecules?
Experiment: Hemolytic activity
Format: cell-based, albino mice
Conditions: albino, mouse, red blood cells (RBC pellet from blood), pH 7.4; 20 µL sample (10 mg/mL) with 180 µL RBC, 37 °C, half an hour
Your answer should be a plain number; it is taken to be in %.

So for Cc1ccc(S(=O)(=O)N2CCN(C(=S)SCC(=O)Nc3ccc(Cl)cc3)CC2)cc1 [Compound 4e] , the logged hemolysis at 0.5 h, 1 mg/mL turned out to be 7.5

So for Cc1ccc(S(=O)(=O)N2CCN(C(=S)SCC(=O)Nc3ccc(Cl)c(Cl)c3)CC2)cc1 [Compound 4i] , the logged hemolysis at 0.5 h, 1 mg/mL turned out to be 12.8

So for Cc1ccc(S(=O)(=O)N2CCN(C(=S)SCC(=O)Nc3ccccc3F)CC2)cc1 [Compound 4c] , the logged hemolysis at 0.5 h, 1 mg/mL turned out to be 6.6

So for Cc1ccc(S(=O)(=O)N2CCN(C(=S)SCC(=O)Nc3ccc(C)c(C)c3)CC2)cc1 [Compound 4j] , the logged hemolysis at 0.5 h, 1 mg/mL turned out to be 2.56

So for Cc1ccc(S(=O)(=O)N2CCN(C(=S)SCC(=O)Nc3ccc(F)cc3)CC2)cc1 [Compound 4f] , the logged hemolysis at 0.5 h, 1 mg/mL turned out to be 4.53

So for COc1ccc(OC)c(NC(=O)CSC(=S)N2CCN(S(=O)(=O)c3ccc(C)cc3)CC2)c1 [Compound 4h] , the logged hemolysis at 0.5 h, 1 mg/mL turned out to be 11.3

So for COc1ccc(NC(=O)CSC(=S)N2CCN(S(=O)(=O)c3ccc(C)cc3)CC2)cc1 [Compound 4d] , the logged hemolysis at 0.5 h, 1 mg/mL turned out to be 15.6

So for Cc1ccc(S(=O)(=O)N2CCN(C(=S)SCC(=O)Nc3ccc(C)cc3C)CC2)cc1 [Compound 4g] , the logged hemolysis at 0.5 h, 1 mg/mL turned out to be 1.53

So for Cc1ccc(S(=O)(=O)N2CCN(C(=S)SCC(=O)Nc3ccccc3Cl)CC2)cc1 [Compound 4b] , the logged hemolysis at 0.5 h, 1 mg/mL turned out to be 0.29

So for Cc1ccc(S(=O)(=O)N2CCN(C(=S)SCC(=O)Nc3ccccc3)CC2)cc1 [Compound 4a] , the logged hemolysis at 0.5 h, 1 mg/mL turned out to be 0.55
